test system: lepidopteran larvae: cabbage loopers (Trichoplusia ni) and beet armyworms (Spodoptera exigua); type: in vivo; settings: leaf discs; 48 hr; insecticide + buffered amine oxide system PO4, 12, 200:1; PPM: Chlorantranilopril 60, Acephate 70, Methoxyfenozide 100, Spinosad 30, Permethrin 10, Indoxacarb 50
Each record here notes measured Percent Lepidopteran Damage to Romaine Lettuce 48 hr.
measure: Percent Lepidopteran Damage to Romaine Lettuce 48 hr (%)

[[record]]
compound = "CC1(C)C(C=C(Cl)Cl)C1C(=O)OCc1cccc(Oc2ccccc2)c1 (centres unmarked)"
assay_result = 10.5

[[record]]
compound = "CNC(=O)c1cc(Cl)cc(C)c1NC(=O)c1cc(Br)nn1-c1ncccc1Cl"
assay_result = 12.5

[[record]]
compound = "COc1cccc(C(=O)NN(C(=O)c2cc(C)cc(C)c2)C(C)(C)C)c1C [Methoxyfenozide]"
assay_result = 67.5

[[record]]
compound = "COP(=O)(NC(C)=O)SC (centres unmarked) [Acephate]"
assay_result = 55.5

[[record]]
compound = "COC(=O)N(C(=O)N1CO[C@@]2(C(=O)OC)Cc3cc(Cl)ccc3C2=N1)c1ccc(OC(F)(F)F)cc1"
assay_result = 63.5

